# TESTED_ON: 5-hydroxytryptamine receptor 2C (Homo sapiens)
# Sequence (P28335 whole entry): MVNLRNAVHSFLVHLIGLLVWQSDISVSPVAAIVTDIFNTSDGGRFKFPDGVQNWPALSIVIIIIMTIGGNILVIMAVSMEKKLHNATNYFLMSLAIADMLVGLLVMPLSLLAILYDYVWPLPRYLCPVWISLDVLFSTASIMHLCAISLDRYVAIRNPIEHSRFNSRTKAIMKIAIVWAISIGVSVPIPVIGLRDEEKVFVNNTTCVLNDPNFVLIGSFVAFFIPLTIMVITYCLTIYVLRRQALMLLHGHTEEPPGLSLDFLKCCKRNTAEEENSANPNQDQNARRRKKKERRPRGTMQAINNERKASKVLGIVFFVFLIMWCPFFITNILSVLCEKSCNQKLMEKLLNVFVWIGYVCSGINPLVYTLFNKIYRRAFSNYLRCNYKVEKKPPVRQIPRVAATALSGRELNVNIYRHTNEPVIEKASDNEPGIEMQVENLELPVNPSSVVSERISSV
# TEST_NAME: Binding affinity towards human 5-hydroxytryptamine 2C receptor.
pKi: −log10 of the molar value.
# pKi annotations

COMPOUND: c1ccc2c(c1)nc1n2CCNC1
TESTED_ON: 5-hydroxytryptamine receptor 2C (Homo sapiens)
pKi: < 5.00
--
COMPOUND: CC(CN)n1ccc2ccc3ccccc3c21 (stereo not drawn)
TESTED_ON: 5-hydroxytryptamine receptor 2C (Homo sapiens)
pKi: < 5.00
--
COMPOUND: COc1ccc2c(ccn2CCN(C)C)c1
TESTED_ON: 5-hydroxytryptamine receptor 2C (Homo sapiens)
pKi: < 5.00

Recorded values, source ChEMBL document CHEMBL1135367.
